Catalogue of Activity readings, one per entry.
Target: Protein cereblon/Tyrosine-protein phosphatase non-receptor type 1 (Homo sapiens, UniProt P18031+Q96SW2)
Sequence (P18031 whole entry, looked up): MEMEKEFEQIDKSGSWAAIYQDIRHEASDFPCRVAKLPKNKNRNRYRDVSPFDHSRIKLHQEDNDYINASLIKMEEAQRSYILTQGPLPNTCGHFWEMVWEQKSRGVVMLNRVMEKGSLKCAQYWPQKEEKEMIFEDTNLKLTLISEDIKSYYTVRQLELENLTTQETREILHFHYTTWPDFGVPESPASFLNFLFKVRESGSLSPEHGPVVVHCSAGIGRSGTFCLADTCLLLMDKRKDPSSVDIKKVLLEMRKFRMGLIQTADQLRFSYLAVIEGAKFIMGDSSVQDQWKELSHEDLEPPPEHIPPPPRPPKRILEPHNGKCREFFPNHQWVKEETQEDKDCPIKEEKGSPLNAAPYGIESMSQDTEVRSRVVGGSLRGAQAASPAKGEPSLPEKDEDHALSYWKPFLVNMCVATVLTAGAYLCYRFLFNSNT
Sequence (Q96SW2 whole entry, looked up): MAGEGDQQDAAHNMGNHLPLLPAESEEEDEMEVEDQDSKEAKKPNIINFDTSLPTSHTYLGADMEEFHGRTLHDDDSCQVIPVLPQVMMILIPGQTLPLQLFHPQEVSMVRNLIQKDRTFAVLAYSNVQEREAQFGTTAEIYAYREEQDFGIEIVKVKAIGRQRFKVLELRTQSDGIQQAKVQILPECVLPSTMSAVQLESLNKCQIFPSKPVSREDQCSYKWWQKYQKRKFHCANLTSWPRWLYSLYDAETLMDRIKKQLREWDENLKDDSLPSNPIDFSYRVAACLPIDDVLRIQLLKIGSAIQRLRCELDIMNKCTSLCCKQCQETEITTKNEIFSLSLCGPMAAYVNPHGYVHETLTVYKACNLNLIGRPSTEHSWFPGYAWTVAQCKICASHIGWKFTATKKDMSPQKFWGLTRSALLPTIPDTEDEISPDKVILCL
Assay: PROTAC activity at PTP1B/CRBN in insulin treated human HepG2 cells assessed as protein degradation at 5 nM incubated for 48 hrs by Western blot analysis relative to control
Type: cell-based
Please give a number only; it is taken to be in %.

Check out these entries, answers already filled in.
INSERT INTO assay_data (molecule, value_units, observed_value) VALUES
  ('CC1(C)CC[C@]2(C(=O)NCCCCCCOCCOCCCCCC(=O)Nc3cccc4c3C(=O)N(C3CCC(=O)NC3=O)C4=O)CC[C@]3(C)C(=CC[C@@H]4[C@@]5(C)CC[C@H](O)C(C)(C)[C@@H]5CC[C@]43C)[C@@H]2C1 (stereo not given in full)', '%', 45),
  ('C[C@H]1[C@H](C)CC[C@]2(C(=O)NCCCCCCOCCOCCCCCC(=O)Nc3cccc4c3C(=O)N(C3CCC(=O)NC3=O)C4=O)CC[C@]3(C)C(=CC[C@@H]4[C@@]5(C)CC[C@H](O)C(C)(C)[C@@H]5CC[C@]43C)[C@H]12 (stereo not given in full)', '%', 18),
  ('CC1(C)CC[C@]2(C(=O)NCCCCCCOCCOCCOCCOCCCCCC(=O)Nc3cccc4c3C(=O)N(C3CCC(=O)NC3=O)C4=O)CC[C@]3(C)C(=CC[C@@H]4[C@@]5(C)CC[C@H](O)C(C)(C)[C@@H]5CC[C@]43C)[C@@H]2C1 (stereo not given in full)', '%', 51),
  ('CC1(C)CC[C@]2(C(=O)NCCCOCCCCOCCCNc3cccc4c3C(=O)N(C3CCC(=O)NC3=O)C4=O)CC[C@]3(C)C(=CC[C@@H]4[C@@]5(C)CC[C@H](O)C(C)(C)[C@@H]5CC[C@]43C)[C@@H]2C1 (stereo not given in full)', '%', 17),
  ('O=C1CCC(N2C(=O)c3cccc(NC(=O)COCCOCCOCCCCCCNC(=O)c4cccc(NC(=O)CSc5nc6ccccc6[nH]5)c4)c3C2=O)C(=O)N1 (stereo not given)', '%', 71),
  ('CC1(C)CC[C@]2(C(=O)NCCCCCCOCCOCCOCC(=O)Nc3cccc4c3C(=O)N(C3CCC(=O)NC3=O)C4=O)CC[C@]3(C)C(=CC[C@@H]4[C@@]5(C)CC[C@H](O)C(C)(C)[C@@H]5CC[C@]43C)[C@@H]2C1 (stereo not given in full)', '%', 84),
  ('C[C@H]1[C@H](C)CC[C@]2(C(=O)NCCCCCCOCCOCC(=O)Nc3cccc4c3C(=O)N(C3CCC(=O)NC3=O)C4=O)CC[C@]3(C)C(=CC[C@@H]4[C@@]5(C)CC[C@H](O)C(C)(C)[C@@H]5CC[C@]43C)[C@H]12 (stereo not given in full)', '%', 46),
  ('CC1(C)CC[C@]2(C(=O)NCCCCCCNc3cccc4c3C(=O)N(C3CCC(=O)NC3=O)C4=O)CC[C@]3(C)C(=CC[C@@H]4[C@@]5(C)CC[C@H](O)C(C)(C)[C@@H]5CC[C@]43C)[C@@H]2C1 (stereo not given in full)', '%', 38);

Consider now this further molecule.
Prompt line: What value of measured Activity is listed for C[C@H]1[C@H](C)CC[C@]2(C(=O)NCCCCCCOCCOCCOCC(=O)Nc3cccc4c3C(=O)N(C3CCC(=O)NC3=O)C4=O)CC[C@]3(C)C(=CC[C@@H]4[C@@]5(C)CC[C@H](O)C(C)(C)[C@@H]5CC[C@]43C)[C@H]12 (stereo not given in full) ?
Response line: 83
